Please respond with reported parasite growth remaining, % of DMSO control (lower = more inhibition) for every item in the list.
# protocol notes: qHTS profiling of the MIPE4 collection as inhibitors of Plasmodium falciparum (DD2) proliferation (AID 743345)
# measurement parameters: P. falciparum Dd2 in erythrocytes, SYBR Green DNA, 72 h; at 28.5 µM (top of the series) unless noted
Answer format: numeric, % implied, no suffix.

Exercise: Tell me its parasite growth remaining, % of DMSO control (lower = more inhibition) given CCCc1nn(C)c2c(=O)[nH]c(-c3cc(S(=O)(=O)N4CCN(C)CC4)ccc3OCC)nc12 as the entry.
Solution: 17.2

Exercise: Tell me its parasite growth remaining, % of DMSO control (lower = more inhibition) given Clc1ccc(Nc2nnc(Cc3ccncc3)c3ccccc23)cc1 as the entry.
Solution: 84.7

Exercise: Tell me its parasite growth remaining, % of DMSO control (lower = more inhibition) given CC(C[N+](C)(C)C)OC(N)=O (stereo unspecified) as the entry.
Solution: 101

Exercise: Tell me its parasite growth remaining, % of DMSO control (lower = more inhibition) given NNCCc1ccccc1 as the entry.
Solution: 24.6

Exercise: Tell me its parasite growth remaining, % of DMSO control (lower = more inhibition) given Cc1ccc(N(CC2=NCCN2)c2cccc(O)c2)cc1 as the entry.
Solution: 92.8

Exercise: Tell me its parasite growth remaining, % of DMSO control (lower = more inhibition) given Cc1cc2c(F)c(Oc3ncnn4cc(OC[C@@H](C)O)c(C)c34)ccc2[nH]1 as the entry.
Solution: 93.1

Exercise: Tell me its parasite growth remaining, % of DMSO control (lower = more inhibition) given N#Cc1ccc(C(c2ccc(C#N)cc2)n2cncn2)cc1 as the entry.
Solution: 93.7

Exercise: Tell me its parasite growth remaining, % of DMSO control (lower = more inhibition) given CN([C@@H](Cc1ccc(OS(=O)(=O)c2cccc3cnccc23)cc1)C(=O)N1CCN(c2ccccc2)CC1)S(=O)(=O)c1cccc2cnccc12 as the entry.
Solution: 6.98

Exercise: Tell me its parasite growth remaining, % of DMSO control (lower = more inhibition) given Cc1[nH]c(=O)c(C#N)cc1-c1ccc2nccn2c1 as the entry.
Solution: 93.1

Exercise: Tell me its parasite growth remaining, % of DMSO control (lower = more inhibition) given NC[C@H](O)c1ccc(O)c(O)c1 as the entry.
Solution: 97.8
